Provenance of the data: patent US20150291593A1

Reported PI3Kβ IH % @ 1 uM values follow for various compounds
TEST_TARGET: p110β/p85α (Homo sapiens)
Construct: purchased Millipore
Sequence (P42338 whole entry, species assumed): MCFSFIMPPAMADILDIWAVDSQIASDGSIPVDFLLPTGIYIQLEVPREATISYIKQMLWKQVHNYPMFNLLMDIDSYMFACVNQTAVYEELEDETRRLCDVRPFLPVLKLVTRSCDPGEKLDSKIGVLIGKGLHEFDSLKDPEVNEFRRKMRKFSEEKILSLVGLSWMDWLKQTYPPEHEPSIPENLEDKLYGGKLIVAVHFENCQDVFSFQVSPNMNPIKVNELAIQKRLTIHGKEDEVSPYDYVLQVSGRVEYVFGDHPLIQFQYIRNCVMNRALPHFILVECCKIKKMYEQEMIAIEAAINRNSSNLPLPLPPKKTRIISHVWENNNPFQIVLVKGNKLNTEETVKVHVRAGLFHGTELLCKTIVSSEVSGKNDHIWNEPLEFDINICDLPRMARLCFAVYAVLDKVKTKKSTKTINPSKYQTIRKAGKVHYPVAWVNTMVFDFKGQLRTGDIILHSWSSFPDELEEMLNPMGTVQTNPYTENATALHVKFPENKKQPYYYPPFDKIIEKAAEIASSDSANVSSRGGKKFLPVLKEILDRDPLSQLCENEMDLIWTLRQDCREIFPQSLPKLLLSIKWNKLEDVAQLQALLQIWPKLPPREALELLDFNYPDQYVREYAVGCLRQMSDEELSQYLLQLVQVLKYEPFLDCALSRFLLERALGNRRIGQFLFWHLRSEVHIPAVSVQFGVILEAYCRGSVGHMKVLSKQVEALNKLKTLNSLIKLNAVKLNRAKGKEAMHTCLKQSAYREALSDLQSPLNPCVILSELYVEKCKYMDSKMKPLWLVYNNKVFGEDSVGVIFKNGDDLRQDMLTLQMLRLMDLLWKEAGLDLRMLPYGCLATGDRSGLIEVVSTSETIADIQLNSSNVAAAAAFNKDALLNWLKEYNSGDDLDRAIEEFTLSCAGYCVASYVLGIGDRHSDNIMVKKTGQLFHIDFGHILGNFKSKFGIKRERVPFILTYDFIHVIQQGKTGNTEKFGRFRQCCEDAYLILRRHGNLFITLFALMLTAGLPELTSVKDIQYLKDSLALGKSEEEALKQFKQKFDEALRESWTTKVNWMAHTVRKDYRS
Sequence (P27986 whole entry partner, species assumed): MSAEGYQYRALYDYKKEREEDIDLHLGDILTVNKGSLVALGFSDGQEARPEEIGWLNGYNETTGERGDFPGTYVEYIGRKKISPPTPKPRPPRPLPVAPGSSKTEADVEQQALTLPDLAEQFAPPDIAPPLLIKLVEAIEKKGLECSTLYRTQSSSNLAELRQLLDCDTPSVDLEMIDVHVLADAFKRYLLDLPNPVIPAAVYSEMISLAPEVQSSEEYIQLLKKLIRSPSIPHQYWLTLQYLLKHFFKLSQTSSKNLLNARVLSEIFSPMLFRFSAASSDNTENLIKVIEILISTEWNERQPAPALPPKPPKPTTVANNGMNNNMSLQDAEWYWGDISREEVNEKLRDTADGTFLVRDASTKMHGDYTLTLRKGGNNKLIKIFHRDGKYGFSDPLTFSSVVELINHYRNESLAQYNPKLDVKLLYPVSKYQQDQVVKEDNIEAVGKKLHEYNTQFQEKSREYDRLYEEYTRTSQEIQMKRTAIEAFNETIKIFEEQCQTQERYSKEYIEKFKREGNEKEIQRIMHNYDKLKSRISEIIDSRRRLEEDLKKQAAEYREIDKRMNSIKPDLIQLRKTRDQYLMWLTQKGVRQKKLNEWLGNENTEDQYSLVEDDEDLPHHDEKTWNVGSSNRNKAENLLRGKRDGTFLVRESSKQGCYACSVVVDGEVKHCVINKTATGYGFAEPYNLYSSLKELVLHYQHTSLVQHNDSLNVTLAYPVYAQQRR
EXPERIMENT: Transcreener KINASE Assay, kinase inhibition of p110β/p85α
Assay type: biochemical
EXPERIMENTAL_SETUP: @ 1 uM
A number alone suffices; assume %.

{"columns": ["COMPOUND", "PI3Kβ IH % @ 1 uM (%)"],
 "data": [
  ["O=c1c2cccn2nc([C@H]2CCCN2c2ncnc3[nH]cnc23)n1-c1ccccc1", 8.3],
  ["O=c1c2cccn2nc([C@@H]2CCCN2c2ncnc3[nH]cnc23)n1-c1cccc(F)c1", 18.0],
  ["N#Cc1n[nH]c2ncnc(N3CCC[C@H]3c3nn4cccc4c(=O)n3-c3ccccc3)c12", 23.9]
]}

Query string: Param readout= PI3Kβ IH % @ 1 uM; system= p110β/p85α (Homo sapiens); entry= N#Cc1cccc(-n2c([C@@H]3CCCN3c3ncnc4[nH]cc(C#N)c34)nn3cccc3c2=O)c1 ; returns value.
Result string: 36.9

Query string: Can you check O=c1c2cccn2nc([C@@H]2CCCN2c2ncnc3[nH]cnc23)n1-c1cccc(Cl)c1 next?
Result string: 9.2

Query string: Can you check C[S+]([O-])c1cnc(N)nc1N1CC[C@H]1c1nn2ccc(Cl)c2c(=O)n1-c1ccccc1 (stereo partly shown) next?
Result string: 3.5

Query string: Can you check N#Cc1c[nH]c2ncnc(N3CCC[C@H]3c3nn4cccc4c(=O)n3-c3cccc(F)c3)c12 next?
Result string: 25.1

Query string: Can you check N#Cc1c[nH]c2ncnc(N3CCC[C@H]3c3nn4ccc(C#N)c4c(=O)n3-c3ccccc3)c12 next?
Result string: 74.9

Query string: Can you check O=c1c2cccn2nc([C@@H]2CCCN2c2ncnc3[nH]cnc23)n1-c1ccc(F)cc1 next?
Result string: 56.9

Query string: Can you check N#Cc1c[nH]c2ncnc(N3CCC[C@H]3c3nn4cccc4c(=O)n3-c3cccc(Cl)c3)c12 next?
Result string: 5.4

###

TEST_TARGET: p110δ/p85α (Homo sapiens, UniProt O00329)
Sequence (O00329 whole entry, species assumed): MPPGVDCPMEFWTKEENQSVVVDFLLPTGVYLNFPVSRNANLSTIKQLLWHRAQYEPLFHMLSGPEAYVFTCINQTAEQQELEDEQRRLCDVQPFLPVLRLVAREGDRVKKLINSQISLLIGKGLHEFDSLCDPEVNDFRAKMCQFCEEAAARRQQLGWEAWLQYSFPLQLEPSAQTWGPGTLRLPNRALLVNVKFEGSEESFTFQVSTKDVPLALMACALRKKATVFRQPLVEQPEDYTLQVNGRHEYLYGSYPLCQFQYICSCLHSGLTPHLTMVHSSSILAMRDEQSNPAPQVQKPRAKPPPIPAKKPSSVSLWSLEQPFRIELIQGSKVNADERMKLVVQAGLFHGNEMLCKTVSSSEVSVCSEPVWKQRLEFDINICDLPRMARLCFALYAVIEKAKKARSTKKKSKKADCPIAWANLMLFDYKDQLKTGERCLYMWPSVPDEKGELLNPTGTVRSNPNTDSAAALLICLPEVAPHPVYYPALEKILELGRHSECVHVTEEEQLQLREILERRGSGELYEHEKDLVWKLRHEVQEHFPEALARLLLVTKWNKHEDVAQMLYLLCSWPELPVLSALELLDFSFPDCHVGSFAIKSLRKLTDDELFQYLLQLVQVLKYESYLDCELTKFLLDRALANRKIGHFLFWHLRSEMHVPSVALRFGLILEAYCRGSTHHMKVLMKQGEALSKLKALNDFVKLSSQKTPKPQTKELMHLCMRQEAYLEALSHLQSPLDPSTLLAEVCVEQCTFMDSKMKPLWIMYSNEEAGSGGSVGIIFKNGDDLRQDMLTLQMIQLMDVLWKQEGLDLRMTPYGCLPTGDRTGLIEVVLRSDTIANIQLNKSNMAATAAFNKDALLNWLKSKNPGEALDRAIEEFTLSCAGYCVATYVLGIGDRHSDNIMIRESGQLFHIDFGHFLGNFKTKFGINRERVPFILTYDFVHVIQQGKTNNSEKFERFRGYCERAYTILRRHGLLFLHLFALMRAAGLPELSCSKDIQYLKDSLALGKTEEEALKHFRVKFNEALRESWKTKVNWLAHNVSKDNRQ
Sequence (P27986 whole entry partner, species assumed): as the sequence (P27986 whole entry partner, species assumed) above
EXPERIMENT: Transcreener KINASE Assay, kinase inhibition of p110δ/p85α
EXPERIMENTAL_SETUP: read-out: PI3Kδ IC50
pIC50: −log10 of the molar value.
Decision: pIC50 compared against 9; not below it gives 1, below it gives 0.

{"columns": ["MOLECULE", "TEST_TARGET", "LABEL"],
 "data": [
  ["O=c1c2cccn2nc([C@@H]2CCCN2c2ncnc3[nH]cnc23)n1-c1ccccc1 [Compound 4]", "p110δ/p85α (Homo sapiens, UniProt O00329)", 0],
  ["C[C@H]1CCN(c2ncnc3[nH]cnc23)C1c1nn2ccc(Cl)c2c(=O)n1-c1ccccc1 (stereo partly shown) [Compound 234]", "p110δ/p85α (Homo sapiens, UniProt O00329)", 0],
  ["CC(Nc1ncnc2[nH]cc(F)c12)c1cc2ncc(Cl)n2c(=O)n1-c1ccccc1 (single isomer, unassigned) [Compound 450]", "p110δ/p85α (Homo sapiens, UniProt O00329)", 1]
]}

Query string: Is reported pIC50 greater than or equal to 9 here: O=c1c2cccn2nc([C@@H]2CCCN2c2ncnc3[nH]cc(-c4cn[nH]c4)c23)n1-c1ccccc1 [Compound 99]
Result string: 0

Query string: Can you check O=c1c2c(Cl)ccn2nc([C@@H]2C[C@H](O)CN2c2ncnc3[nH]cnc23)n1-c1ccccc1 [Compound 262] next?
Result string: 1

Query string: Can you check N#Cc1c[nH]c2ncnc(N3CCC[C@H]3c3nn4ccc(C#N)c4c(=O)n3-c3ccccc3)c12 [Compound 113] next?
Result string: 0

Query string: Can you check N#Cc1c[nH]c2ncnc(N3CCC[C@H]3c3nn4cccc4c(=O)n3-c3ccccc3)c12 [Compound 1] next?
Result string: 0
